Test system: BEAS-2B
assayDetails: Cytotoxicity against human BEAS2B cells after 48 hrs by PrestoBlue staining based fluorescence assay
Type: cell-based
valueType: CC50 (µM)
Your answer is read as µM, so omit the unit and give the number.

[
  {
    "structureSmilesString": "Cc1ccoc1C(=O)N1CCCn2nc(C(=O)Nc3cccc(F)c3)cc2C1",
    "CC50, µM": 30
  },
  {
    "structureSmilesString": "Cc1ccoc1C(=O)N1CCCn2nc(C(=O)Cc3ccccc3)cc2C1",
    "CC50, µM": 5.5
  },
  {
    "structureSmilesString": "Cc1cc(C)c(C(=O)N2CCCn3nc(C(=O)Nc4ccccc4)cc3C2)o1",
    "CC50, µM": 2.6
  }
]

Here's the next entry for you.
[Q] Answer with the recorded CC50 of Cc1ccoc1C(=O)N1CCCn2nc(C(=O)Nc3ccccc3)cc2C1 only.
[A] 8.3

* * *

assayDetails: Aqueous solubility of the compound in phosphate buffered saline at pH 7.4 after 90 mins by laser nephelometric method
Format: physicochemical
valueType: solubility kinetic at 1.5 h
The reply must contain the numeric value and, after it, the unit.

Worked set:
[
  {
    "structureSmilesString": "Cc1ccoc1C(=O)N1CCCn2nc(C(=O)Nc3ccccc3F)cc2C1",
    "solubility kinetic at 1.5 h": "30 µg/mL"
  },
  {
    "structureSmilesString": "Cc1ccoc1C(=O)N1CCCn2nc(C(=O)Nc3ccccc3)cc2C1",
    "solubility kinetic at 1.5 h": "63 µg/mL"
  },
  {
    "structureSmilesString": "Cc1ccoc1C(=O)N1CCCn2nc(C(=O)N(C)c3ccccc3)cc2C1",
    "solubility kinetic at 1.5 h": "58 µg/mL"
  },
  {
    "structureSmilesString": "COc1ccccc1NC(=O)c1cc2n(n1)CCCN(C(=O)c1occc1C)C2",
    "solubility kinetic at 1.5 h": "28 µg/mL"
  }
]

Let us examine a further case.
[Q] Answer with the recorded solubility kinetic at 1.5 h of Cc1ccoc1C(=O)N1CCCn2nc(C(=O)Cc3ccccc3)cc2C1 only.
[A] 18 µg/mL

* * *

Listing of recorded solubility kinetic at 1.5 h by entry.
assayDetails: Aqueous solubility of the compound in citrate buffer at pH 3 after 90 mins by laser nephelometric method
Assay type: physicochemical
Your answer is read as µg/mL, so omit the unit and give the number.

Previously resolved entries follow.
[
  {
    "structureSmilesString": "Cc1ccoc1C(=O)N1CCCn2nc(C(=O)Nc3ccccc3F)cc2C1",
    "valueType": "solubility kinetic at 1.5 h",
    "measuredNumber": 75
  },
  {
    "structureSmilesString": "Cc1ccoc1C(=O)N1CCCn2nc(C(=O)Nc3ccccc3)cc2C1",
    "valueType": "solubility kinetic at 1.5 h",
    "measuredNumber": 74
  }
]

[Q] Output measured solubility kinetic at 1.5 h for this item: Cc1ccoc1C(=O)N1CCCn2nc(C(=O)N(C)c3ccccc3)cc2C1
[A] 20

[Q] Look up solubility kinetic at 1.5 h of COc1ccccc1NC(=O)c1cc2n(n1)CCCN(C(=O)c1occc1C)C2 and report it.
[A] 48

* * *

assayDetails: Selectivity index, ratio of CC50 for human BEAS2B cells to EC50 for inhibition of recombinant mkate-tagged-Respiratory syncytial virus-A2-L19F RNA-dependent RNA polymerase complex D489E mutant in human BEAS2B cells infected with Respiratory syncytial virus-A2-L19F
Type: toxicity, cell-based
particulars: read-out: Ratio CC50/EC50
compounds and their reported selectivity ratio

[
  {
    "structureSmilesString": "Cc1ccoc1C(=O)N1CCCn2cc(C(=O)Nc3ccccc3)cc2C1",
    "selectivity ratio": "> 28"
  },
  {
    "structureSmilesString": "O=C(Nc1ccccc1)c1cc2n(n1)CCCN(C(=O)c1occc1C(F)(F)F)C2",
    "selectivity ratio": 6
  }
]

[Q] Please report the measured selectivity ratio for Cc1ccoc1C(=O)N1CCCn2nc(C(=O)Nc3ccccc3F)cc2C1
[A] 22

[Q] Tell us which selectivity ratio value is on record for O=C(Nc1ccccc1F)c1cc2n(n1)CCCN(C(=O)c1ccco1)C2
[A] 12

[Q] Respond only with selectivity ratio recorded for COc1ccc(NC(=O)c2cc3n(n2)CCCN(C(=O)c2occc2C)C3)cc1
[A] 281

[Q] Read off the recorded selectivity ratio for CCc1ccoc1C(=O)N1CCCn2nc(C(=O)Nc3ccccc3)cc2C1
[A] 14

[Q] Give the value of selectivity ratio reported for the following: O=C(Nc1ccccc1)c1cc2n(n1)CCCN(C(=O)c1occc1Cl)C2
[A] 39

[Q] For the compound Cc1ccoc1C(=O)N1CCCn2nc(C(=O)Nc3ccncn3)cc2C1 , give its measured selectivity ratio value.
[A] 11
